Metric name: melting point

Compound: COc1ccc(-c2cc3c(OC)cc(OC)cc3nc2OCCCN(C)C)cc1 [Compound 22a]
melting point: 54 to 55 °C
//
Compound: COc1ccc(-c2cc3c(OC)cc(OC)cc3nc2OCCN(C)C)cc1 [Compound 23a]
melting point: 49 to 50 °C
//
Compound: Cc1ccc2[nH]c(=O)c(-c3ccccc3)cc2c1
melting point: 212 to 213 °C
//
Compound: COc1ccc2[nH]c(=O)c(-c3ccccc3)cc2c1
melting point: 243 to 244 °C

// next item, melting point requested
Entry under review: `COc1ccc(-c2cc3c(OC)cc(OC)cc3nc2OC)cc1` . Reported melting point?
106 to 107 °C

---

System: A549
Test: MTT test, A549
Assay type: cell-based
Conditions: Homo sapiens, 10^−5 M, 72 hours, control = 100%, mean ± SEM, read-out: average optical density (MTT), percentage relative to control
Please provide measured viability at 10 µM for the entries that follow.
Numbers only, in %.

Compound structure: CCOC(=O)Cn1c(=O)c(-c2ccc(OC)cc2)cc2c(OC)cc(OC)cc21
Metric name: viability at 10 µM
Measured value: 85.2
--
Compound structure: CCN(CC)C(=O)CCn1c(=O)c(-c2ccc(OC)cc2)cc2c(OC)cc(OC)cc21
Metric name: viability at 10 µM
Measured value: 63.6
--
Compound structure: COc1ccc(-c2cc3c(OC)cc(OC)cc3n(CC#N)c2=O)cc1
Metric name: viability at 10 µM
Measured value: 79.1
--
Compound structure: COC(=O)CCn1c(=O)c(-c2ccc(OC)cc2)cc2c(OC)cc(OC)cc21
Metric name: viability at 10 µM
Measured value: 86.6
--
Compound structure: COc1ccc(-c2cc3c(OC)cc(OC)cc3n(CCc3nnn[nH]3)c2=O)cc1
Metric name: viability at 10 µM
Measured value: 56.5

Please give viability at 10 µM, item by item, for the list that follows.
1. COc1cc(OC)c2cc(-c3ccc(O)cc3)c(O)nc2c1
2. COc1ccc(-c2cc3c(OC)cc(OC)c4c3n(c2=O)CCC4=O)cc1
3. COc1cc(OC)c2cc(-c3ccccc3)c(O)nc2c1
4. COc1ccc(-c2cc3c(OC)cc(OC)cc3n(C)c2=S)cc1
5. COc1ccc(-c2cc3c(OC)cc(OC)cc3n(CCC(=O)O)c2=O)cc1
6. CCN(CC)C(=O)Cn1c(=O)c(-c2ccc(OC)cc2)cc2c(OC)cc(OC)cc21
7. COc1ccc(-c2cc3c(OC)cc(OC)cc3n(C)/c2=N\Nc2ccccn2)cc1
8. COc1ccc(-c2cc3c(OC)cc(OC)cc3n(C)/c2=N\Nc2ccccc2)cc1

[91.7, 92.5, 76.3, 74.1, 97.3, 76.1, 61.6, 52.2]

Would you mind listing viability at 10 µM for each of the following compounds?
1. COc1ccc(-c2cc3c(OC)cc(OC)cc3n(CCC#N)c2=O)cc1
2. COc1ccc(-c2cc3c(OC)cc(OC)cc3n(CC(=O)O)c2=O)cc1

81.3
94.7

---

Metric name: melting point

Previously resolved entries follow.
Molecule: COc1cc(OC)c2cc(-c3ccc(OS(=O)(=O)C(F)(F)F)cc3)c(=O)n(C)c2c1 [Compound 45]
melting point: 144 to 145 °C
--
Molecule: COc1ccc(-c2cc3c(OC)cc(OC)cc3nc2OCC#N)cc1 [Compound 19a]
melting point: 149 to 150 °C

Okay, here is my list. What is melting point for each of these?
1. COc1ccc(-c2cc3c(OC)cc(OC)cc3nc2OCC(=O)OCc2ccccc2)cc1 [Compound 13a]
2. CCOC(=O)COc1nc2cc(OC)cc(OC)c2cc1-c1ccc(OC)cc1 [Compound 11a]

1. 114 to 115 °C
2. 95 to 96 °C

Item under review: CCN(CC)C(=O)COc1nc2cc(OC)cc(OC)c2cc1-c1ccc(OC)cc1 [Compound 18a] . Reported melting point?
146 to 147 °C

---

Tested on: HCT-15
Test: MTT test, HCT-15
Assay type: cell-based
Settings: Homo sapiens, 10^−5 M, 72 hours, control = 100%, mean ± SEM, read-out: average optical density (MTT), percentage relative to control
Metric name: viability at 10 µM (%)
Answers are plain numbers, in %.

Compound structure: COc1ccc(-c2cc3c(OC)cc(OC)cc3nc2S)cc1
Metric name: viability at 10 µM
Measured value: 87.2

Compound structure: COc1ccc(-c2cc3c(OC)cc(OC)cc3n(C)/c2=N\Nc2ccccc2)cc1
Metric name: viability at 10 µM
Measured value: 58.8

Compound structure: COc1cc(OC)c2cc(-c3ccc(O)cc3)c(O)nc2c1
Metric name: viability at 10 µM
Measured value: 77.3

Would you mind listing viability at 10 µM for each of the following molecules?
1. COc1cc(OC)c2cc(-c3ccccc3)c(O)nc2c1
2. COc1ccc(-c2cc3c(OC)cc(OC)cc3n(CC(=O)O)c2=O)cc1

[94.7, 104]

---

Tested on: HCT-15
Assay: MTT test, HCT-15
Assay type: cell-based
Settings: Homo sapiens, 10^−5 M, 72 hours, control = 100%, mean ± SEM, read-out: average optical density (MTT), percentage relative to control
Metric name: viability at 10 µM (%)
Answers are plain numbers, in %.

Consider the following illustrative entries.
Compound structure: COC(=O)CCn1c(=O)c(-c2ccc(OC)cc2)cc2c(OC)cc(OC)cc21
viability at 10 µM (%): 113
//
Compound structure: COc1ccc(-c2cc3c(OC)cc(OC)cc3n(C)c2=O)cc1
viability at 10 µM (%): 76.8
//
Compound structure: COc1ccc(-c2cc3c(OC)cc(OC)cc3n(CCCN(C)C)c2=O)cc1
viability at 10 µM (%): 94.4
//
Compound structure: CCOC(=O)Cn1c(=O)c(-c2ccc(OC)cc2)cc2c(OC)cc(OC)cc21
viability at 10 µM (%): 116
//
Compound structure: COc1ccc(-c2cc3c(OC)cc(OC)cc3n(CC#N)c2=O)cc1
viability at 10 µM (%): 58.7

Give me viability at 10 µM for each of these compounds, listed below.
1. COc1ccc(-c2cc3c(OC)cc(OC)cc3n(CCN(C)C)c2=O)cc1
2. CCN(CC)C(=O)CCn1c(=O)c(-c2ccc(OC)cc2)cc2c(OC)cc(OC)cc21
3. CCN(CC)C(=O)Cn1c(=O)c(-c2ccc(OC)cc2)cc2c(OC)cc(OC)cc21
4. COc1ccc(-c2cc3c(OC)cc(OC)cc3n(CCC#N)c2=O)cc1

79.8
58.2
87.9
87.4

---

Tested on: MXT
Experiment: Clonogenic test (soft agar colony growth), MXT
Type: cell-based, mouse
Details: 10^−7 M, 21 days, control = 100%, mean ± SEM
Procedure: 1—Interaction (Stimulation or Inhibition of Proliferation) With the Generation of Clonogenic Cells (Clonogenic Test) […] The influence of the compounds of formulae (I) and (Ia) on the growth of the cell colonies obtained by culturing, for example, the mammalian tumor lines MCF7 and MXT and the colorectal line HT-29 on the semi-liquid culture medium known as “soft agar” was measured. […]
Metric name: average number of clones of clonogenic cells, percentage relative to control (%)
Give bare numbers, in %.

Molecule: CCN(CC)C(=O)Cn1c(=O)c(-c2ccc(OC)cc2)cc2c(OC)cc(OC)cc21 [CRL8315]
Measured value: 103.9
--
Molecule: COc1ccc(-c2cc3c(OC)cc(OC)cc3n(CCN(C)C)c2=O)cc1 [CRL8316]
Measured value: 89.1
--
Molecule: COc1ccc(-c2cc3c(OC)cc(OC)cc3n(CCC#N)c2=O)cc1 [CRL8247]
Measured value: 89.6

Batch request: average number of clones of clonogenic cells, percentage relative to control per item, same order as input.
1. COc1ccc(-c2cc3c(OC)cc(OC)cc3[nH]c2=O)cc1 [CRL8246]
2. COc1ccc(-c2cc3c(OC)cc(OC)cc3n(CCc3nnn[nH]3)c2=O)cc1 [CRL8256]

1. 97.7
2. 103.8

Please report the recorded average number of clones of clonogenic cells, percentage relative to control for CCN(CC)C(=O)CCn1c(=O)c(-c2ccc(OC)cc2)cc2c(OC)cc(OC)cc21 [CRL8283] .
81.2

---

Would you kindly list viability at 10 µM for each of these molecules?
Test system: SW1088
Assay: MTT test, SW1088
Format: cell-based
Conditions: Homo sapiens, 10^−5 M, 72 hours, control = 100%, mean ± SEM, read-out: average optical density (MTT), percentage relative to control
Numbers only, in %.

Please report viability at 10 µM for every entry that follows.
1. COc1ccc(-c2cc3c(OC)cc(OC)cc3n(CCC#N)c2=O)cc1
2. Oc1ccc(-c2cc3c(O)cc(O)cc3nc2O)cc1
3. COc1ccc(-c2cc3c(OC)cc(OC)cc3n(C)/c2=N\Nc2ccccc2)cc1
4. COc1ccc(-c2cc3c(OC)cc(OC)cc3n(C)/c2=N\Nc2ccccn2)cc1
5. COC(=O)CCn1c(=O)c(-c2ccc(OC)cc2)cc2c(OC)cc(OC)cc21

1: 85.8; 2: 80.7; 3: 50.7; 4: 68.4; 5: 75.2
